TARGET_ENTITY: Avi-KRAS WT (1-169) GppNHp/RAF1 RBD-3xFLAG (52-151) (Homo sapiens)
Construct: Avi-KRAS WT (1-169)
Sequence (P01116 1-169 isoform P01116-2): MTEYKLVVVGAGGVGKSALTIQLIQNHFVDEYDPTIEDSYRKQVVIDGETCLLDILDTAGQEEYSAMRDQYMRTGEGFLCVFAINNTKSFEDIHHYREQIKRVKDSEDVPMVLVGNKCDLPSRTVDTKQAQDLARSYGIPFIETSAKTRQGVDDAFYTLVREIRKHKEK
ASSAY_PROTOCOL: Raf1-KRAS WT-GppNHP disruption HTRF assay (Biological Example 1)
Type: binding
CONDITION_CONTEXT: KRAS WT, GppNHp-loaded; Table 11
pIC50: −log10 of the molar value.

# COMPOUND, TARGET_ENTITY, pIC50
records = [
    ("C[C@@H]1COCCN1c1nc(OC[C@@]23CCCN2C[C@H](F)C3)nc2c(F)c(-c3ccc(F)c4sc(N)c(C#N)c34)c(C(F)(F)F)cc12 [Compound 134]", "Avi-KRAS WT (1-169) GppNHp/RAF1 RBD-3xFLAG (52-151) (Homo sapiens)", "6.00 to 7.00"),
    ("N#Cc1c(N)sc2c(F)ccc(-c3c(C(F)(F)F)cc4c(N5CC6CCC5CO6)nc(OC[C@@]56CCCN5C[C@H](F)C6)nc4c3F)c12 (stereo partly drawn) [Compound 146]", "Avi-KRAS WT (1-169) GppNHp/RAF1 RBD-3xFLAG (52-151) (Homo sapiens)", "6.00 to 7.00"),
    ("CN(CC(F)(F)F)c1nc(OC[C@@]23CCCN2C[C@H](F)C3)nc2c(F)c(-c3ccc(F)c4sc(N)c(C#N)c34)c(C(F)(F)F)cc12 [Compound 165]", "Avi-KRAS WT (1-169) GppNHp/RAF1 RBD-3xFLAG (52-151) (Homo sapiens)", "6.00 to 7.00"),
    ("N#Cc1c(N)sc2c(F)ccc(-c3c(C(F)(F)F)cc4c(N5CC6(CC6)C5)nc(OC[C@@]56CCCN5C[C@H](F)C6)nc4c3F)c12 [Compound 204]", "Avi-KRAS WT (1-169) GppNHp/RAF1 RBD-3xFLAG (52-151) (Homo sapiens)", "5.00 to 6.00"),
    ("CCN(CCO)c1nc(OC[C@@H]2C[C@@H](F)CN2C)nc2c(F)c(-c3ccc(F)c4sc(N)c(C#N)c34)c(C(F)(F)F)cc12 [Compound 177]", "Avi-KRAS WT (1-169) GppNHp/RAF1 RBD-3xFLAG (52-151) (Homo sapiens)", "6.00 to 7.00"),
    ("N#Cc1c(N)sc2c(F)ccc(-c3c(C(F)(F)F)cc4c(N5CCN(C(=O)CO)CC5)nc(OC[C@@]56CCCN5C[C@H](F)C6)nc4c3F)c12 [Compound 101]", "Avi-KRAS WT (1-169) GppNHp/RAF1 RBD-3xFLAG (52-151) (Homo sapiens)", "6.00 to 7.00"),
]

---

Catalogue of molecules with associated IC50
TARGET_ENTITY: Avi-KRAS G12V (1-169) GppNHp/RAF1 RBD-3xFLAG (52-151) (Homo sapiens, UniProt P01116, G12V)
Construct: Avi-KRAS G12V (1-169)
Sequence (P01116 1-169 isoform P01116-2 G12V): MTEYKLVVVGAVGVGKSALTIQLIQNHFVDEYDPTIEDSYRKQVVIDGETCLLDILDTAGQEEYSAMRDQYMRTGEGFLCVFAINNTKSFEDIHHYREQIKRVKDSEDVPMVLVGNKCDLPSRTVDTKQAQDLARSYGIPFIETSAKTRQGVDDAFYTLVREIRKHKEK
ASSAY_PROTOCOL: Raf1-KRAS G12V-GppNHP disruption HTRF assay (Biological Example 1)
Type: binding
CONDITION_CONTEXT: KRAS G12V, GppNHp-loaded; class symbols
PROPERTY: IC50

# MOLECULE, TARGET_ENTITY, PROPERTY, RECORDED_RESULT
measured = [
    ("CCN(c1nc(OC[C@@]23CCCN2C[C@H](F)C3)nc2c(F)c(-c3ccc(F)c4sc(N)c(C#N)c34)c(C(F)(F)F)cc12)[C@H]1C[C@H](COC)N(C(C)=O)C1 (atropisomer, axis not shown)", "Avi-KRAS G12V (1-169) GppNHp/RAF1 RBD-3xFLAG (52-151) (Homo sapiens, UniProt P01116, G12V)", "IC50", "< 100 nM"),
    ("CCN(c1nc(OC[C@@]23CCCN2C[C@H](F)C3)nc2c(F)c(-c3ccc(F)c4sc(N)c(C#N)c34)c(C(F)(F)F)cc12)[C@H]1C[C@H](C)N(C(=O)[C@H](C)OC)C1 (atropisomer, axis not shown)", "Avi-KRAS G12V (1-169) GppNHp/RAF1 RBD-3xFLAG (52-151) (Homo sapiens, UniProt P01116, G12V)", "IC50", "100 to 1000 nM"),
    ("CCN(c1nc(OC[C@@]23CCCN2C[C@H](F)C3)nc2c(F)c(-c3ccc(F)c4sc(N)c(C#N)c34)c(C(F)(F)F)cc12)[C@H]1CCN(C(=O)[C@@H]2C[C@@H]2F)C1 (atropisomer, axis not shown)", "Avi-KRAS G12V (1-169) GppNHp/RAF1 RBD-3xFLAG (52-151) (Homo sapiens, UniProt P01116, G12V)", "IC50", "< 100 nM"),
    ("CCN(c1nc(OC[C@@]23CCCN2C[C@H](F)C3)nc2c(F)c(-c3ccc(F)c4sc(N)c(C#N)c34)c(C(F)(F)F)cc12)[C@H]1CCN(C(=O)C2CN(C(C)=O)C2)C1 (atropisomer, axis not shown)", "Avi-KRAS G12V (1-169) GppNHp/RAF1 RBD-3xFLAG (52-151) (Homo sapiens, UniProt P01116, G12V)", "IC50", "< 100 nM"),
    ("CCN(c1nc(OC[C@H]2C[C@@H](OC)CN2C)nc2c(F)c(-c3ccc(F)c4sc(N)c(C#N)c34)c(C(F)(F)F)cc12)[C@H]1CCN(C(=O)C(C)C)C1", "Avi-KRAS G12V (1-169) GppNHp/RAF1 RBD-3xFLAG (52-151) (Homo sapiens, UniProt P01116, G12V)", "IC50", "1000 to 10000 nM"),
    ("CCN(c1nc(OC[C@@]23CCCN2C[C@H](F)C3)nc2c(F)c(-c3ccc(F)c4sc(N)c(C#N)c34)c(C(F)(F)F)cc12)[C@H]1CCN(C(=O)N2CC3(COC3)C2)C1 (atropisomer, axis not shown)", "Avi-KRAS G12V (1-169) GppNHp/RAF1 RBD-3xFLAG (52-151) (Homo sapiens, UniProt P01116, G12V)", "IC50", "< 100 nM"),
    ("CCN1C[C@@H](N(C)c2nc(OC[C@@]34CCCN3C[C@H](F)C4)nc3c(F)c(-c4ccc(F)c5sc(N)c(C#N)c45)c(C(F)(F)F)cc23)CC1=O (atropisomer, axis not shown)", "Avi-KRAS G12V (1-169) GppNHp/RAF1 RBD-3xFLAG (52-151) (Homo sapiens, UniProt P01116, G12V)", "IC50", "< 100 nM"),
    ("CN(c1nc(OC[C@@]23CCCN2C[C@H](F)C3)nc2c(F)c(-c3ccc(F)c4sc(N)c(C#N)c34)c(C(F)(F)F)cc12)[C@H]1CCN(C(=O)[C@@H]2CC2(F)F)C1 (atropisomer, axis not shown)", "Avi-KRAS G12V (1-169) GppNHp/RAF1 RBD-3xFLAG (52-151) (Homo sapiens, UniProt P01116, G12V)", "IC50", "100 to 1000 nM"),
    ("CC1c2cc(C(=O)N(C)C)nn2CCN1c1nc(OCC23CCCN2CC(F)C3)nc2c(F)c(-c3ccc(F)c4sc(N)c(C#N)c34)c(C(F)(F)F)cc12 (centres unmarked) [Compound 568]", "Avi-KRAS G12V (1-169) GppNHp/RAF1 RBD-3xFLAG (52-151) (Homo sapiens, UniProt P01116, G12V)", "IC50", "100 to 1000 nM"),
    ("CCN(c1nc(OC[C@@]23CCCN2C[C@H](F)C3)nc2c(F)c(-c3ccc(F)c4sc(N)c(C#N)c34)c(C(F)(F)F)cc12)[C@H]1CCN(C(=O)N2CC3(CC3)C2)C1 (atropisomer, axis not shown)", "Avi-KRAS G12V (1-169) GppNHp/RAF1 RBD-3xFLAG (52-151) (Homo sapiens, UniProt P01116, G12V)", "IC50", "< 100 nM"),
    ("CN(C)C(=O)N1CC[C@H](N(c2nc(OC[C@@]34CCCN3C[C@H](F)C4)nc3c(F)c(-c4ccc(F)c5sc(N)c(C#N)c45)c(C(F)(F)F)cc23)C2CC2)C1 (atropisomer, axis not shown)", "Avi-KRAS G12V (1-169) GppNHp/RAF1 RBD-3xFLAG (52-151) (Homo sapiens, UniProt P01116, G12V)", "IC50", "100 to 1000 nM"),
    ("CCN(c1nc(OC[C@@]23CCCN2C[C@H](F)C3)nc2c(F)c(-c3ccc(F)c4sc(N)c(C#N)c34)c(C(F)(F)F)cc12)[C@H]1C[C@@H](COC)N(C(C)=O)C1 (atropisomer, axis not shown)", "Avi-KRAS G12V (1-169) GppNHp/RAF1 RBD-3xFLAG (52-151) (Homo sapiens, UniProt P01116, G12V)", "IC50", "100 to 1000 nM"),
    ("CCN(c1nc(OC[C@@]23CCCN2C[C@H](F)C3)nc2c(F)c(-c3ccc(F)c4sc(N)c(C#N)c34)c(C(F)(F)F)cc12)[C@H]1C[C@H]2CCC(=O)N2C1 (atropisomer, axis not shown; (aR))", "Avi-KRAS G12V (1-169) GppNHp/RAF1 RBD-3xFLAG (52-151) (Homo sapiens, UniProt P01116, G12V)", "IC50", "< 100 nM"),
    ("N#Cc1c(N)sc2c(F)ccc(-c3c(C(F)(F)F)cc4c(N5CCn6nc(C(=O)N7CCOCC7)cc6C5)nc(OCC56CCCN5CC(F)C6)nc4c3F)c12 (centres unmarked)", "Avi-KRAS G12V (1-169) GppNHp/RAF1 RBD-3xFLAG (52-151) (Homo sapiens, UniProt P01116, G12V)", "IC50", "< 100 nM"),
    ("CCN(c1nc(OC[C@@]23CCCN2C[C@H](F)C3)nc2c(F)c(-c3ccc(F)c4sc(N)c(C#N)c34)c(C(F)(F)F)cc12)[C@H]1CCN(C(=O)N2CC(OC(F)F)C2)C1 (atropisomer, axis not shown)", "Avi-KRAS G12V (1-169) GppNHp/RAF1 RBD-3xFLAG (52-151) (Homo sapiens, UniProt P01116, G12V)", "IC50", "< 100 nM"),
    ("CCN(c1nc(OC[C@@]23CCCN2C[C@H](F)C3)nc2c(F)c(-c3ccc(F)c4sc(N)c(C#N)c34)c(C(F)(F)F)cc12)[C@H]1C[C@H]2CCOC(=O)N2C1 (atropisomer, axis not shown)", "Avi-KRAS G12V (1-169) GppNHp/RAF1 RBD-3xFLAG (52-151) (Homo sapiens, UniProt P01116, G12V)", "IC50", "< 100 nM"),
    ("CCN(c1nc(OC[C@@]23CCCN2C[C@H](F)C3)nc2c(F)c(-c3ccc(F)c4sc(N)c(C#N)c34)c(C(F)(F)F)cc12)[C@H]1CCN(C(=O)c2cnnn2C)C1 (atropisomer, axis not shown)", "Avi-KRAS G12V (1-169) GppNHp/RAF1 RBD-3xFLAG (52-151) (Homo sapiens, UniProt P01116, G12V)", "IC50", "100 to 1000 nM"),
]
